target or test system: Leucine aminopeptidase (Plasmodium falciparum (isolate 3D7)) (UniProt Q8IL11)
Sequence (Q8IL11 whole entry, looked up): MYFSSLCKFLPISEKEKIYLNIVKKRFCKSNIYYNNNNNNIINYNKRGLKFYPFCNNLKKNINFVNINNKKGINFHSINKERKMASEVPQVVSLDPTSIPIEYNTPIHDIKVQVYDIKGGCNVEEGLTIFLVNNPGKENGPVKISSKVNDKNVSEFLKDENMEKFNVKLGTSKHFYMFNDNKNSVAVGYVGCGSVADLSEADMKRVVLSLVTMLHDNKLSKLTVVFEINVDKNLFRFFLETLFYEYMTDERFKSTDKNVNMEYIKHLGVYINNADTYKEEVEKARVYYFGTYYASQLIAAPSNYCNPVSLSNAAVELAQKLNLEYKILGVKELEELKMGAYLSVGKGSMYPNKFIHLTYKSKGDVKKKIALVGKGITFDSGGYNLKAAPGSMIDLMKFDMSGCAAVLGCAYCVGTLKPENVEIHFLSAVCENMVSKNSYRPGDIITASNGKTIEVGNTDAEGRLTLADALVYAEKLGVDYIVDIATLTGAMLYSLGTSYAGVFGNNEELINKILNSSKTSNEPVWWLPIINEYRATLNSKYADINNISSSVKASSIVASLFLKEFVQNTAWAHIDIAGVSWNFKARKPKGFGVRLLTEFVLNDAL
assay info: P. falciparum M17LAP inhibitors, primary screen, biochemical, fluorogenic H-Leu-NHMec substrate, 1536-well (AID 1619);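 also: plate controls were full reaction with DMSO carrier for no effect and no enzyme background for full effect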
condition info: recombinant M17LAP, H-Leu-NHMec fluorogenic kinetic assay; at 30 µM; active compounds read high
The whole screen tested about 220,000 compounds, of which about 830 (0.38%) were called active. The list is a sample of the results. Potency and affinity values are given separately.
attribute measured: inhibition (%)
Write down the numeric answer in % and omit the unit.

{"molecule": "Cc1ccc(C(=O)CSc2nnc(C)s2)cc1", "target or test system": "Leucine aminopeptidase (Plasmodium falciparum (isolate 3D7)) (UniProt Q8IL11)", "readout unit": "%", "numeric readout": -0.76}
{"molecule": "CCc1ccc(C(=O)CSc2nc3ccccc3c(=O)[nH]2)cc1", "target or test system": "Leucine aminopeptidase (Plasmodium falciparum (isolate 3D7)) (UniProt Q8IL11)", "readout unit": "%", "numeric readout": -2.74}
{"molecule": "Cn1cnnc1SCC(=O)OCN1C(=O)c2ccccc2C1=O", "target or test system": "Leucine aminopeptidase (Plasmodium falciparum (isolate 3D7)) (UniProt Q8IL11)", "readout unit": "%", "numeric readout": 3.47}
{"molecule": "Cc1ccc(-c2cc(C(=O)NCc3ccco3)no2)cc1", "target or test system": "Leucine aminopeptidase (Plasmodium falciparum (isolate 3D7)) (UniProt Q8IL11)", "readout unit": "%", "numeric readout": -5.12}
{"molecule": "Cc1ccc(-c2cc(C(=O)Nc3ccc(S(=O)(=O)Nc4ncccn4)cc3)c3ccccc3n2)cc1", "target or test system": "Leucine aminopeptidase (Plasmodium falciparum (isolate 3D7)) (UniProt Q8IL11)", "readout unit": "%", "numeric readout": 39.1}
{"molecule": "CC(=O)Nc1ccc(NC(=O)CSc2ccc(C)cc2)cc1", "target or test system": "Leucine aminopeptidase (Plasmodium falciparum (isolate 3D7)) (UniProt Q8IL11)", "readout unit": "%", "numeric readout": -3.31}
{"molecule": "Cc1ccc(CNC(=O)CN2CCCC(C)C2)cc1 (stereo unspecified)", "target or test system": "Leucine aminopeptidase (Plasmodium falciparum (isolate 3D7)) (UniProt Q8IL11)", "readout unit": "%", "numeric readout": 8.72}
{"molecule": "O=C(CCNS(=O)(=O)c1cccs1)Nc1nccs1", "target or test system": "Leucine aminopeptidase (Plasmodium falciparum (isolate 3D7)) (UniProt Q8IL11)", "readout unit": "%", "numeric readout": -0.31}

Query :: Could you share what inhibition was measured for `CCCn1c(SCC(=O)c2ccc(CC)cc2)n[nH]c1=O` , tested on Leucine aminopeptidase (Plasmodium falciparum (isolate 3D7)) (UniProt Q8IL11)?
Result :: 26.6

Query :: Input `Cc1ccc(C(=O)CSc2nc(C)cc(=O)[nH]2)cc1`
Result :: 9.23

Query :: Could you do the same for `CC(=O)NS(=O)(=O)c1ccc(NC(=O)c2cc(-c3cccs3)nc3ccccc23)cc1` , please?
Result :: 16.1
